Dear all, this message contains Ki results, target or system C-C chemokine receptor type 3 (Homo sapiens).
measured-attribute: Ki (nM)

Worked cases, answers included:
compound: Clc1ccccc1/C=C1\CCN2Cc3ccccc3N=C12
Ki (nM): 110
//
compound: C/N=c1/c2ccccc2nc2n1CC/C2=C\c1ccccc1Br
Ki (nM): 310

1 = C(=C1/CCN2Cc3ccccc3N=C12)/c1ccccc1-c1ccccc1
2 = N=c1c2ccccc2nc2n1CC/C2=C\c1ccccc1Cl
## Task Of the pair 1 and 2 , name the member with the lesser recorded Ki. Could you answer with the label of the item you picked?
## Result 2

* * *

These molecules were tested on UniProt P51677; Ki is the recorded read-out.
measured-attribute: Ki (µM)

chemical-string: CC(C)(C)c1csc2nc3n(c(=N)c12)CC/C3=C\c1ccccc1Br
units: µM
Ki: 1.2

a = Fc1ccccc1/C=C1\CCN2Cc3ccccc3N=C12
b = COc1ccc(/C=C2\CCn3c2nc2ccccc2c3=N)cc1
c = Clc1ccc(/C=C2\CCN3Cc4ccccc4N=C23)cc1Cl
## Task Hi! Can you put these in order of Ki, lowest number first? List labels; respect the requested ordering.
## Result c, a, b
(c: 0.72 µM, a: 1.4 µM, b: 3.9 µM)

Source: ChEMBL document CHEMBL1144285
